Read-out: Interferon-gamma inducible Protein 10 (IP10), CXCL10 (gene 3627)
MEASUREMENT_NOTES: BSK_BE3C_IP10: BioMAP Diversity Plus: BE3C Assay for Interferon-gamma inducible Protein 10 (IP10) Biomarker Activity (AID 2283034)
SETTINGS: primary human bronchial epithelial cells; actives raise or lower the signal
Active and inactive are the calls of the source. The calls were made as follows: active = hit-call score of the fitted dose curve at least 0.9, where 1 is the maximum; inactive = score below 0.9.
Labels: active, inactive

- MOLECULE: "CC(C)OC(=O)Nc1cccc(Cl)c1"
  DISCRETE_LABEL: "inactive"
- MOLECULE: "CC1(C)C(C=C(Cl)Cl)C1C(=O)OC(C#N)c1ccc(F)c(Oc2ccccc2)c1 (stereo not drawn)"
  DISCRETE_LABEL: "inactive"
- MOLECULE: "O=C1c2ccccc2C(=O)N1SC(Cl)(Cl)Cl"
  DISCRETE_LABEL: "active"
- MOLECULE: "CC(C)(C)C(O)C(Oc1ccc(Cl)cc1)n1cncn1 (stereo not drawn)"
  DISCRETE_LABEL: "inactive"
- MOLECULE: "COP(=S)(OC)Oc1ccc(SC)c(C)c1"
  DISCRETE_LABEL: "inactive"
- MOLECULE: "OCCOc1ccccc1"
  DISCRETE_LABEL: "inactive"
- MOLECULE: "O=S(=O)(O)C(F)(F)C(F)(F)C(F)(F)C(F)(F)C(F)(F)C(F)(F)C(F)(F)C(F)(F)F"
  DISCRETE_LABEL: "active"
- MOLECULE: "CCCN(CCOc1c(Cl)cc(Cl)cc1Cl)C(=O)n1ccnc1"
  DISCRETE_LABEL: "active"
- MOLECULE: "CCC(C)(C)C(=O)OC1=C(c2ccc(Cl)cc2Cl)C(=O)OC12CCCCC2"
  DISCRETE_LABEL: "active"
- MOLECULE: "ClC1C(Cl)C(Cl)C(Cl)C(Cl)C1Cl (stereo not drawn)"
  DISCRETE_LABEL: "inactive"
- MOLECULE: "Oc1ccc(Cl)cc1Cc1ccccc1"
  DISCRETE_LABEL: "active"
- MOLECULE: "CCN(CC)C(=O)SCc1ccc(Cl)cc1"
  DISCRETE_LABEL: "inactive"
- MOLECULE: "CNC(=O)/C=C(\\C)OP(=O)(OC)OC"
  DISCRETE_LABEL: "inactive"

The reported measurements were obtained from PubChem BioAssay (EPA / NIEHS).
